Recorded values, source PubChem BioAssay AID652048.

- MEASURED ON: D(3) dopamine receptor (Homo sapiens) (UniProt P35462)
- Sequence (P35462 whole entry, looked up): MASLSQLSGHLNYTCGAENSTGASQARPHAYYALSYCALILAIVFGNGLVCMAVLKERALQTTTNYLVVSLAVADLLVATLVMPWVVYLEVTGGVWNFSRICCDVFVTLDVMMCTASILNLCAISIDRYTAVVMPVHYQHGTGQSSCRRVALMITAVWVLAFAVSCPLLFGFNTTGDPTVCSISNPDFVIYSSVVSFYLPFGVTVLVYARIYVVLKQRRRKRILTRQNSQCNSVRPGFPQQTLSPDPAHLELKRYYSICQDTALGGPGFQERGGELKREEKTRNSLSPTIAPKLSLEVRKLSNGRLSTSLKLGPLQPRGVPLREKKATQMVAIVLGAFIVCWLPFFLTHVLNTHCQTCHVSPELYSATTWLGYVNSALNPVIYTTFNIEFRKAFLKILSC
- MEASUREMENT DESCRIPTION: qHTS of D3 Dopamine Receptor Agonist: qHTS
- STUDY CONDITIONS: D3R DiscoveRx beta-arrestin cells, luminescence, 90 min
About 2,400 (0.59%) of roughly 410,000 compounds were called active. No stated cut-off is given here; in the data, active means max activation above about 30%; inactive means the rest. Only a selection was taken, and actives are over-represented in it overall.
Form entry, call: pick from True (active), False (inactive)

# input Can you look up the reported call for `CCCCOc1ccc(-c2ncc(C(=O)OCC)c(N)n2)cc1` for me?
# output True

# input Query: recorded result category for `COc1ccc(-c2nc3cnccn3c2NC(C)(C)CC(C)(C)C)cc1O` in this test
# output False

# input Called result for `O=C(CSc1nc2c(c(=O)[nH]1)CN(Cc1ccc(F)cc1)CC2)Nc1ccccc1Cl`
# output False

# input Dear colleague, could you share the recorded outcome for `COc1cc(CNCc2ccc3c(c2)OCO3)c([N+](=O)[O-])cc1OC` when you have a moment?
# output False

# input Just curious, what result did `CCOC(=O)c1cnc(SCc2nc(N)nc(Nc3ccc(OC)cc3)n2)nc1N` get here?
# output False

# input Dear colleague, could you share the recorded outcome for `Cc1cccc2c(=O)cc(CSc3ccccc3NC(=O)C(C)C)[nH]c12` when you have a moment?
# output False

# input Record request — test call for `COc1cc2c(-c3ccc4c(c3)OCO4)c(-c3ccsc3)oc(=O)c2cc1OC`
# output True

# input Assay outcome for `C/C(CC(=O)NCc1ccc(Cl)cc1)=N\NC(=O)COc1ccc(C)cc1Br` : what was it?
# output False

# input Identify the outcome logged in this assay for the molecule shown: `CSc1ccc(/C=N\NC(=O)COc2ccc(Cl)cc2Br)cc1`
# output True

# input Tell me the recorded outcome of this test for `CCOc1ccc(-c2cc3c(=O)n(CC(=O)NCc4ccc(OC)cc4)ccn3n2)cc1` .
# output False

# input How was `COc1cc(-c2c(-c3ccc4c(c3)OCO4)noc2C)ccc1F` classified in this test?
# output False

# input What call does the record list for `COc1cccc(N2CCN(C(=O)CCCCCn3c(=O)[nH]c4ccccc4c3=O)CC2)c1` ?
# output False

# input Give the logged outcome of this assay for the following molecule: `Cc1ccccc1-n1c(SCC(=O)Nc2cccc3ccccc23)nc(O)cc1=O`
# output False

# input Write down the call the test reported for this molecule. Item: `CCOC(=O)c1cnc(SCC(=O)Nc2cccc(OC)c2)nc1N`
# output False

# input Hi, do you know how `Cc1cccc(N2CCN(S(=O)(=O)c3ccc4[nH]c5c(c4c3)CCCCC5)CC2)c1C` came out in this test?
# output False
